- STUDY TARGET: HLA-A*33:01
- RUN DESCRIPTION: IEDB peptide-MHC binding, purified MHC/competitive/radioactivity; filed as Kd, often an IC50 or EC50 that approximates it; bounds were set here for any values at or beyond the usual limits of such assays
- REPORTED CONDITIONS: source organism: Vaccinia virus WR
Measured Kd accompanies every entry in the list below.
Give the number; nM is assumed, so skip it.

Consider the reported Kd for these sequences:
VMNIERQDY 747
YTYDRVDIYY 1170
LIDTTSRELK 716
YALINLVQYR 1270
KQYIVATLMK 1150

query: What Kd appears in the records for this sequence with HLA-A*33:01? `LSCIRNASK`
result: 784

query: Also `VALYRRIQRR` ?
result: 1340

query: Then this sequence: `IAEYIAGLK`
result: 1320

query: Queued: `NTKSDIDVIK`
result: 970

query: Cool, now `YIYSEIKQGR`
result: 853

###

- STUDY TARGET: HLA-A*02:02
- RUN DESCRIPTION: IEDB peptide-MHC binding, purified MHC/competitive/radioactivity; filed as Kd, often an IC50 or EC50 that approximates it; bounds were set here for any values at or beyond the usual limits of such assays
- REPORTED CONDITIONS: source organism: Vaccinia virus WR
Mark Yes for Kd under 700 nM, No if at or over.

Some solved entries appear below for comparison.
EIVKNIREGT No
KILSDENYL Yes

query: hey, is Kd for `PTSETMYLT` lower than 700 nM or not?
result: No

query: Entry to check: `TIDAINKCV`
result: Yes

query: Another sequence to check: `MVEYLENQL`
result: Yes

query: Then this sequence: `IASGQRCHFI`
result: Yes

query: Let us now turn to `YIILFILFFA`
result: Yes

query: `IMTSTRTIIL` ?
result: No

###

- STUDY TARGET: HLA-A*68:01
- RUN DESCRIPTION: IEDB peptide-MHC binding, purified MHC/competitive/radioactivity; filed as Kd, often an IC50 or EC50 that approximates it; bounds were set here for any values at or beyond the usual limits of such assays
- REPORTED CONDITIONS: source organism: SARS coronavirus Tor2
OBSERVABLE: log10 of Kd (log10 of the value in nM)
A value of 2 here means Kd of 100 in nM, since values are log10.

Below, each entry is followed by its recorded log10 of Kd result.
SVVQKPVDVK 2.93
TSSTCMMCYK 0.69
SLYMAISPK 3.34

query: What does the record list as log10 of Kd for `EQLQLLMPLK` ?
result: 3.25

query: Now the sequence `ALCTLLHLHR`
result: 3.53

query: Next sequence up: `VVYRAFDIY`
result: 3.52

query: Also check `AAYYFMKFR`
result: 1.19

###

- STUDY TARGET: HLA-B*40:02
- RUN DESCRIPTION: IEDB peptide-MHC binding, purified MHC/competitive/radioactivity; filed as Kd, often an IC50 or EC50 that approximates it; bounds were set here for any values at or beyond the usual limits of such assays
- REPORTED CONDITIONS: source organism: SARS coronavirus Tor2
pKd: −log10 of the molar value.
OBSERVABLE: pKd

Recorded pKd, per entry:
SDYDYYRYNL ≤ 4.29
IDYDCVSFCY ≤ 4.41

Continue with the next sequence.
query: If you can, please state the reported pKd value of `YDYYRYNLPT` .
result: ≤ 4.44
